- Assay overview: Mitotoxicity / Mitotox safety margin (therapeutic window)
- Type: cell-based
- Conditions used: mitotox or cytotox
Class assignment keyed on Highest safe dose (μM) (mitotox or cytotox), ranges zone 1 (below 5 µM), zone 2 (5 µM to below 20 µM), zone 3 (20 µM or more)

The examples below pair each entry with its known result.
{"Compound": "C[C@H]1CN([C@H]2COc3ccccc3[C@@H]2Nc2ncnc3[nH]c(C4CC4)cc23)CCO1 [EP-0040999]", "Cat": "zone 2"}
{"Compound": "Fc1cccc2c1CC[C@@H](N1C[C@H]3COC[C@H]3C1)[C@@H]2Nc1ncnc2[nH]c(C3CC3)cc12 (single isomer, unassigned) [EP-0040577]", "Cat": "zone 1"}

Assign a bin to FC(F)(F)c1cc2c(N[C@H]3c4ccccc4CC[C@@H]3N3C[C@H]4COC[C@H]4C3)ncnc2[nH]1 [EP-0038461]
zone 1

Assign a bin to C[C@@H]1CN([C@@H]2COc3ccccc3[C@H]2Nc2ncnc3[nH]c(C(F)(F)F)cc23)CCO1 [EP-0040956]
zone 2

Assign a bin to FC(F)(F)c1cc2c(N[C@H]3c4ccccc4CC[C@@H]3N3C[C@H]4COC[C@H]4C3)ncnc2[nH]1 (single isomer, unassigned) [EP-0038582]
zone 3

Assign a bin to C[C@@H]1CN([C@@H]2COc3cc(F)ccc3[C@H]2Nc2ncnc3[nH]c(C4CC4)cc23)C[C@H](C)O1 [EP-0040949]
zone 1

Assign a bin to COC1CN([C@H]2COc3ccccc3[C@@H]2Nc2ncnc3[nH]c(C4CC4)cc23)C1 [EP-0040702]
zone 3

====

Overview of recorded EC50 for various compounds
- Test system: HeLa MKYP cells
- Assay overview: Human mitophagy assay (HeLa mKeima assay, FACS)
- Type: cell-based
- Conditions used: Homo sapiens, HeLa; read-out: Mitophagy induction EC50
Write the number in µM without appending the unit.

A selection of reference data follows.
{"Compound": "N#Cc1cn([C@@H]2CCc3ccccc3[C@@H]2Nc2ncnc3[nH]c(C(F)(F)F)cc23)cn1 [EP-0039748]", "EC50 [µM]": 8.07}
{"Compound": "c1ccc2c(c1)OC[C@H](C1CCOCC1)[C@H]2Nc1ncnc2[nH]c(C3CC3)cc12 (single isomer, unassigned) [EP-0040587]", "EC50 [µM]": 0.09}

Here's the next entry for you.
Measured EC50, C[C@@H]1CN([C@H]2CCc3ccccc3[C@@H]2Nc2ncnc3[nH]c(C(F)(F)F)cc23)CCO1 (single isomer, unassigned) [EP-0040491] : 0.07

====

- System: HeLa MKYP cells
- Assay overview: Cell death measured by DAPI staining, with 1 μM FCCP/oligomycin or no toxin (no FO)
- Assay type: cell-based
- Conditions used: 8.3 μM compound, no FO
- Experimental: EP-0035985, EP-0037821, EP-0038098, and EP-0038099 in the presence of 1 μM FCCP/oligomycin or with no toxin (no FO) for 6 hrs. H2O2 treatment was performed as a control for cell death as measured by DAPI staining. EP-0035985, EP-0038461, EP-0038463, and EP-0038503 in the presence of 1 μM FCCP/oligomycin or with no toxin (no FO) for 6.5 hrs. H2O2 treatment was performed as a control for cell death as measured by DAPI staining. […]
Value kind: E105 death at 8.3 μM (no FO)
Provide a numeric answer; units are not to be included.

A selection of reference data follows.
{"Compound": "FC(F)(F)c1cc2c(N[C@@H]3c4ccccc4CC[C@H]3N3CCOCC3)ncnc2[nH]1 (racemic) [EP-0037821]", "E105 death at 8.3 μM (no FO)": 2.87}
{"Compound": "FC(F)(F)c1cc2c(N[C@H]3c4ccccc4CC[C@@H]3N3CC4(CCOCC4)C3)ncnc2[nH]1 (single isomer, unassigned) [EP-0038463]", "E105 death at 8.3 μM (no FO)": 4.21}

Measured E105 death at 8.3 μM (no FO), FC(F)(F)c1cc2c(NC3CCCc4ccccc43)ncnc2[nH]1 (single isomer, unassigned) [EP-0035985] : 2.54

Measured E105 death at 8.3 μM (no FO), Fc1ccc2c(c1)CC[C@@H](N1CCOCC1)[C@@H]2Nc1ncnc2[nH]c(C(F)(F)F)cc12 (single isomer, unassigned) [EP-0038504] : 2.93

Measured E105 death at 8.3 μM (no FO), FC(F)(F)c1cc2c(N[C@H]3c4ccccc4CC[C@@H]3N3CCOCC3)ncnc2[nH]1 (single isomer, unassigned) [EP-0038098] : 2.59

Measured E105 death at 8.3 μM (no FO), FC(F)(F)c1cc2c(N[C@@H]3c4ccccc4CC[C@H]3N3CCOCC3)ncnc2[nH]1 (single isomer, unassigned) [EP-0038099] : 2.41

====

- Test system: HeLa MKYP cells
- Assay overview: Cell death measured by DAPI staining, with 1 μM FCCP/oligomycin or no toxin (no FO)
- Type: cell-based
- Conditions used: no FO; safe means DAPI+ <20%
Value kind: Highest safe dose (cytotoxicity; no FO; safe means DAPI+ <20%) (µM)
Write the number in µM without appending the unit.

A selection of reference data follows.
{"Compound": "CN(c1ncnc2[nH]c(C3CC3)cc12)C1c2ccccc2CCC1N1C[C@H]2COC[C@H]2C1 (stereo partly drawn) [EP-0039743]", "Unit name": "µM", "Endpoint value": 25.0}
{"Compound": "Fc1ccc2c(c1)OC[C@H](N1C[C@@H]3COC[C@H]3C1)[C@H]2Nc1ncnc2[nH]c(C3CC3)cc12 (single isomer, unassigned) [EP-0040874]", "Unit name": "µM", "Endpoint value": 25.0}

Here's the next entry for you.
Measured Highest safe dose (cytotoxicity; no FO; safe means DAPI+ <20%), c1ccc2c(c1)CC[C@@H](N1C[C@H]3COC[C@@H]3C1)[C@@H]2Nc1ncnc2[nH]c(C3CC3)cc12 [EP-0040767] : 25.0

====

Overview of recorded Max % death with 1 μM FO for various molecules
- Test system: HeLa MKYP cells
- Assay overview: Cell death measured by DAPI staining, with 1 μM FCCP/oligomycin or no toxin (no FO)
- Type: cell-based
- Conditions used: with 1 μM FO
- Description: EP-0035985, EP-0037821, EP-0038098, and EP-0038099 in the presence of 1 μM FCCP/oligomycin or with no toxin (no FO) for 6 hrs. H2O2 treatment was performed as a control for cell death as measured by DAPI staining. EP-0035985, EP-0038461, EP-0038463, and EP-0038503 in the presence of 1 μM FCCP/oligomycin or with no toxin (no FO) for 6.5 hrs. H2O2 treatment was performed as a control for cell death as measured by DAPI staining. […]

A selection of reference data follows.
{"Molecule": "C[C@@H]1CN([C@@H]2COc3ccccc3[C@H]2Nc2ncnc3[nH]c(C4CC4)cc23)CCO1", "Endpoint value": "14.1%"}
{"Molecule": "CN1CCN([C@H]2CCc3ccccc3[C@@H]2Nc2ncnc3[nH]c(C(F)(F)F)cc23)CC1 (single isomer, unassigned)", "Endpoint value": "14.4%"}

Measured Max % death with 1 μM FO, c1ccc2c(c1)OC[C@H](C1CCOCC1)[C@H]2Nc1ncnc2[nH]c(C3CC3)cc12 (single isomer, unassigned) [EP-0040587] : 21.5%

====

- Assay overview: Kinetic solubility
- Assay type: physicochemical
Value kind: solubility kinetic (µM)
Write the number in µM without appending the unit.

A selection of reference data follows.
{"Molecule": "FC1(F)CCN([C@H]2CCc3ccccc3[C@@H]2Nc2ncnc3[nH]c(C(F)(F)F)cc23)CC1 (single isomer, unassigned)", "solubility kinetic [µM]": 1}
{"Molecule": "Fc1ccc2c(c1)CC[C@H](N1CCOCC1)[C@H]2Nc1ncnc2[nH]c(C(F)(F)F)cc12 (single isomer, unassigned)", "solubility kinetic [µM]": 1.56}

Here's the next entry for you.
Measured solubility kinetic, `CN(CC1CCOCC1)[C@H]1CCc2ccccc2[C@@H]1Nc1ncnc2[nH]c(C(F)(F)F)cc12` : 7.05

====

- Assay overview: Mitotoxicity / Mitotox safety margin (therapeutic window)
- Assay type: cell-based
- Conditions used: highest safe dose/EC50
Value kind: Mito-Safety Index (highest safe dose/EC50)

{"Compound": "Fc1ccc2c(c1)CC[C@@H](N1CCOCC1)[C@@H]2Nc1ncnc2[nH]c(C(F)(F)F)cc12 (single isomer, unassigned) [EP-0038504]", "Endpoint value": 1.76}
{"Compound": "C[C@@H]1CN([C@H]2CCc3ccccc3[C@@H]2Nc2ncnc3[nH]c(C(F)(F)F)cc23)C[C@H](C)O1 (single isomer, unassigned) [EP-0040493]", "Endpoint value": 103.09}

Measured Mito-Safety Index (highest safe dose/EC50), Fc1ccc2c(c1)CC[C@H](N1C[C@@H]3COC[C@H]3C1)[C@H]2Nc1ncnc2[nH]c(C3CC3)cc12 [EP-0040669] : 71.36
